- assay.info: Selectivity index, IC50 for equine BChE to IC50 for bovine AChE by Ellman's method
Exercise: state measured Selectivity Index for each of the molecules provided.
Numbers only.

Answered examples (3):
[[record]]
chemical_structure = "C[N+](C)(C)c1cccc(OCCCCOc2cccc([N+](C)(C)C)c2)c1"
measured_property = "Selectivity Index"
recorded_value = 15

[[record]]
chemical_structure = "Cc1c(C)c2ccc(OCCCCOc3cc(O)cc([N+](C)(C)C)c3)cc2oc1=O"
measured_property = "Selectivity Index"
recorded_value = 708

[[record]]
chemical_structure = "C[N+](C)(C)c1cc(O)cc(OCCCOc2cc(O)cc([N+](C)(C)C)c2)c1"
measured_property = "Selectivity Index"
recorded_value = 1460


Moving on to another molecule below.
## Input I'd like to know its Selectivity Index. The molecule in question is Cc1c(C)c2ccc(OCCCOc3cc(O)cc([N+](C)(C)C)c3)cc2oc1=O
## Output 505

---

- tested.on: Cholinesterase (Equus caballus)
- Sequence (P81908 whole entry): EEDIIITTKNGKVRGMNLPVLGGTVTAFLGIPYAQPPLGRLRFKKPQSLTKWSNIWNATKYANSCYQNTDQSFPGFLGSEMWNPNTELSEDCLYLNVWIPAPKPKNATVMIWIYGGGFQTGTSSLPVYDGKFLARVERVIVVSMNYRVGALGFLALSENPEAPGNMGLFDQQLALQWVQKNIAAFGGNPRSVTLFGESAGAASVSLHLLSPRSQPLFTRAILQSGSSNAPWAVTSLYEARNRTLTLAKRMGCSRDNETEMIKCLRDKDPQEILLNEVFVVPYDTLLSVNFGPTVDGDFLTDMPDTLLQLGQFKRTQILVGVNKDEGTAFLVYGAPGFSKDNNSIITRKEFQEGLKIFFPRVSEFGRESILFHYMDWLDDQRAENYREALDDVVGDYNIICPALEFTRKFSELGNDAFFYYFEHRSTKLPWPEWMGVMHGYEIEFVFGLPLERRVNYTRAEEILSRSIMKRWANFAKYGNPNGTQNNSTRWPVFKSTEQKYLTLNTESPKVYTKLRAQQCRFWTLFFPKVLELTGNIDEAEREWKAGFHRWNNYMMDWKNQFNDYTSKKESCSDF
measured.property: pIC50
Give bare numbers, as −log10 of the molar value.

Answered examples (4):
[[record]]
chemical_structure = "C[N+](C)(C)c1cc(O)cc(OCCCCOc2cc(O)cc([N+](C)(C)C)c2)c1"
recorded_value = 6.15

[[record]]
chemical_structure = "C[N+](C)(C)c1cccc(OCCCCOc2cccc([N+](C)(C)C)c2)c1"
recorded_value = 5.63

[[record]]
chemical_structure = "C[N+](C)(C)c1cc(O)cc(OCCCOc2cc(O)cc([N+](C)(C)C)c2)c1"
recorded_value = 6.14

[[record]]
chemical_structure = "Cc1c(C)c2ccc(OCCCCOc3cc(O)cc([N+](C)(C)C)c3)cc2oc1=O"
recorded_value = 6.15


Moving on to another compound below.
## Input Query the reported pIC50 for Cholinesterase (Equus caballus); item: Cc1c(C)c2ccc(OCCCOc3cc(O)cc([N+](C)(C)C)c3)cc2oc1=O
## Output 5.97

---

- tested.on: UniProt P23795
- Sequence (P23795 whole entry): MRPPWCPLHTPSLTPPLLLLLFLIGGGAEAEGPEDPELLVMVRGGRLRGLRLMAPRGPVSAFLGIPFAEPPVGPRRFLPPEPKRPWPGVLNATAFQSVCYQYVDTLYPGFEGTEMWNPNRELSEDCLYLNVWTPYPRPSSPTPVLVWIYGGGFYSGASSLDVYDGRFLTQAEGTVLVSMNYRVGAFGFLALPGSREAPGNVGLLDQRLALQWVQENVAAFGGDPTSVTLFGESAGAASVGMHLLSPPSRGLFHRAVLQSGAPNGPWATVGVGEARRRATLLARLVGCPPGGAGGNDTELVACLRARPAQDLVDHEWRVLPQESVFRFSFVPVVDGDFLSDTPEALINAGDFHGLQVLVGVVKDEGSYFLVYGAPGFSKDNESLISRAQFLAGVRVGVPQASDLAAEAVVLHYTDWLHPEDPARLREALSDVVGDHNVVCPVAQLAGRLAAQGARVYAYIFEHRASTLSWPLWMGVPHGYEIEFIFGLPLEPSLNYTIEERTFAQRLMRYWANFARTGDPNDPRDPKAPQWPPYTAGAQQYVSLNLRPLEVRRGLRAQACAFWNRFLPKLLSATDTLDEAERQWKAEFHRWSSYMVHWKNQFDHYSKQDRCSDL
- assay.info: Inhibition of bovine AChE at 10 uM by Ellman's method
Exercise: state measured inhibition for each of the compounds provided.
One number for each entry, in %.

[[record]]
chemical_structure = "CN(C)c1cc(O)cc(OCCCCOc2cc(O)cc(N(C)Cc3ccccc3)c2)c1"
unit_string = "%"
recorded_value = 40

[[record]]
chemical_structure = "Cc1c(C)c2ccc(OCCCOc3cc(O)cc(N(C)Cc4ccccc4)c3)cc2oc1=O"
unit_string = "%"
recorded_value = 8

[[record]]
chemical_structure = "Cc1c(C)c2ccc(OCCCCOc3cc(O)cc(N(C)Cc4ccccc4)c3)cc2oc1=O"
unit_string = "%"
recorded_value = 15


Moving on to another compound below.
## Input I'd like to know its inhibition. The compound in question is CN(Cc1ccccc1)c1cc(O)cc(OCCCCOc2cc(O)cc(N(C)Cc3ccccc3)c2)c1
## Output 14
